species: Mus musculus; assay: Effective concentration required to protect mouse embryo cortical neurons against a DNA-damaging agent; assay type: functional
Exercise: state measured EC50 for each of the compounds provided.

Request the reported EC50 associated with Br.COc1ccc(C(=O)C(C#N)n2c3c(sc2=N)CCCC3)cc1 (configuration not stated)
~30 nM

Request the reported EC50 associated with O=[N+]([O-])c1ccc(-c2cn3c4c(sc3n2)CCCC4)cc1
~30 nM

====

Exercise: state measured half-life for each of the compounds provided.
experiment: Half reaction time was determined; assay type: ADME; settings: mouse
Quick reminder: number only, in min, skip the unit.

Request the reported half-life associated with Br.COc1ccc(C(=O)C(C#N)n2c3c(sc2=N)CCCC3)cc1 (centres undefined)
720

Request the reported half-life associated with Br.Cc1ccc(C(=O)Cn2c3c(sc2=N)CCCC3)cc1
240

Request the reported half-life associated with Br.N=c1sc2c(n1CC(=O)c1ccc([N+](=O)[O-])cc1)CC1CCCCC1C2 (centres undefined)
300

Request the reported half-life associated with Br.N=c1sc2c(n1CC(=O)c1ccc([N+](=O)[O-])cc1)CCCC2
360
